Test Target: N-terminal Xaa-Pro-Lys N-methyltransferase 1 (Homo sapiens)
Test Summary: qHTS Assay for Inhibitors of N-terminal methyltransferase 1 (NTMT1): LOPAC validation of the NTMT1 SAHH-coupled ThioGlo3 Assay (AID 1347143);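 also: SAH from peptide methylation measured as thiol fluorescence via SAHH coupling and ThioGlo3; nearly all actives have a fitted effect of over 70% in size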
Conditions Used: recombinant NTMT1, SAHH-coupled ThioGlo3 fluorescence; series mostly up to 114 µM
Excerpt: Assay Submitter (PI): Rong Huang Ph.D, Purdue University, West Lafayette, IN 47907 The N-terminal methytransferase 1 is the first methyltransferase that methylates protein alpha-N-amines and plays an important role in regulating cell mitosis, chromatin interactions and DNA repair. […] To address this unmet need, a panel of assay is created and established to enable quantitative high-throughput screening (qHTS) for novel, potent, and selective small molecule NTMT1 inhibitors. […]
Results filed as inconclusive are left out. Activity calls are given as the source filed them. Calls follow the shape of the dose curve; as a rule, active = well fitted inhibition curve with a large enough effect; inconclusive = small, poorly fitted or top-dose-only effect; inactive = no such curve, though single readings can be large or run the other way.
Reply using exactly one outcome from active, inactive

Take a look at these entries with their results.
CN1C2CCC1CC(OC(c1ccccc1)c1ccccc1N)C2 (stereo unspecified)    inactive
CN1CCc2cc(O)cc3c2[C@H]1Cc1ccc(O)c(O)c1-3    active

Test call, this compound: O=P(O)(O)C(Cl)(Cl)P(=O)(O)O
inactive

What did this assay record as the result for O=C1/C(=C/c2ccccc2)C[C@@]2(O)[C@H]3Cc4ccc(O)c5c4[C@@]2(CCN3CC2CC2)[C@H]1O5 ?
active

So what was the verdict on CCn1cnc2c(Nc3cccc(Cl)c3)nc(N[C@@H]3CCCC[C@@H]3N)nc21 in this test?
active

Dear colleague, could you share the recorded outcome for CC(C)(C)c1o[nH]c(=O)c1CC(N)C(=O)O (stereo unspecified) when you have a moment?
inactive

For O=S1(=O)N(CCN2CC=C(c3c[nH]c4cc(F)ccc34)CC2)c2cccc3c2N1CCC3 , what call appears in the results of this test?
active

Given NNC(N)=O , state the outcome it received in this test.
inactive

How was CCCN(CCC)CCc1ccc(O)c(O)c1 classified in this test?
inactive

What outcome does the record of this test show for CCCn1c(=O)c2[nH]c(C3CCCC3)nc2n(CCCOC(=O)c2ccc(S(=O)(=O)F)cc2)c1=O ?
inactive

// outcome(item) with item = COc1ccc(OC)c(C(O)C(C)N)c1 (stereo unspecified)
inactive

Provenance of the data: PubChem BioAssay (NCATS)
